B1: scFv; the commonest letter at each place (parent)
chain 1: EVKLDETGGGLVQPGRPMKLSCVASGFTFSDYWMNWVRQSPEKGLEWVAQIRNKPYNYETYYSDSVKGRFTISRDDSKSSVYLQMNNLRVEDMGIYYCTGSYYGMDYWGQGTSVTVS
chain 2: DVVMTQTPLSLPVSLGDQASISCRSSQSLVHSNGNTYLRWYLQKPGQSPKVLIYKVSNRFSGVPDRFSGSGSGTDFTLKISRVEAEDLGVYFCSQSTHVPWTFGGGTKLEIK

# Variants of: B1
# protocol.description: Kd (Tite-Seq)
# experimental.setup: with fluorescein; format: scFv 4-4-20, heavy + light
Quick reference for Kd among some variants

[
  {
    "mutation.string": "chain 1 S30L W33E",
    "Kd": "≥ 10 µM"
  },
  {
    "mutation.string": "chain 1 F29Q W36T",
    "Kd": "≥ 10 µM"
  },
  {
    "mutation.string": "chain 1 Y107V",
    "Kd": "0.122 µM"
  },
  {
    "mutation.string": "chain 1 T28V F29Q",
    "Kd": "0.004 µM"
  },
  {
    "mutation.string": "chain 1 D31P W33S",
    "Kd": "≥ 10 µM"
  },
  {
    "mutation.string": "chain 1 D31T W33E",
    "Kd": "≥ 10 µM"
  },
  {
    "mutation.string": "chain 1 Y32C",
    "Kd": "0.143 µM"
  },
  {
    "mutation.string": "chain 1 W36D V37M",
    "Kd": "≥ 10 µM"
  },
  {
    "mutation.string": "chain 1 G100N Y102N",
    "Kd": "≥ 10 µM"
  },
  {
    "mutation.string": "chain 1 Y102M G104M",
    "Kd": "≥ 10 µM"
  },
  {
    "mutation.string": "chain 1 T28D F29Y",
    "Kd": "0.00871 µM"
  },
  {
    "mutation.string": "chain 1 S101A Y107E W108G",
    "Kd": "≥ 10 µM"
  },
  {
    "mutation.string": "chain 1 D31T V37W",
    "Kd": "6.61 µM"
  },
  {
    "mutation.string": "chain 1 M34F V37C",
    "Kd": "0.00104 µM"
  },
  {
    "mutation.string": "chain 1 G100S G104W",
    "Kd": "≥ 10 µM"
  },
  {
    "mutation.string": "chain 1 N35W V37G",
    "Kd": "0.021 µM"
  },
  {
    "mutation.string": "chain 1 T28S M34R",
    "Kd": "≥ 10 µM"
  },
  {
    "mutation.string": "chain 1 W33T M34W",
    "Kd": "≥ 10 µM"
  },
  {
    "mutation.string": "chain 1 D106W Y107N",
    "Kd": "≥ 10 µM"
  },
  {
    "mutation.string": "chain 1 G104Y M105L",
    "Kd": "≥ 10 µM"
  },
  {
    "mutation.string": "chain 1 S30K W36E",
    "Kd": "≥ 10 µM"
  },
  {
    "mutation.string": "chain 1 G100A G104L D106M",
    "Kd": "≥ 10 µM"
  }
]
